tested on: COLO 205; assay: NCI tumour cell line growth inhibition, 48 h
The source made the active and inactive calls. Cut-off read from the data, not from the text of the source: active = GI50 up to about 1.1 µM and inactive = higher.
Assign a class; possible classes are active, inactive

Example results:
>  <MOLECULE>
NC(=O)NC(=O)c1cccc(NC(=O)CI)c1

>  <TARGET_OR_SYSTEM>
COLO 205

>  <CAT>
active

$$$$
>  <MOLECULE>
N#C/C(=C/N1C(=O)/C(=C/c2ccc([N+](=O)[O-])cc2)SC1=S)c1nc2ccccc2s1

>  <TARGET_OR_SYSTEM>
COLO 205

>  <CAT>
inactive

$$$$
>  <MOLECULE>
N#C/N=C(/NCCc1c[nH]c2ccccc12)Oc1ccccc1

>  <TARGET_OR_SYSTEM>
COLO 205

>  <CAT>
inactive

$$$$
>  <MOLECULE>
N#Cc1c(-c2ccco2)cc(-c2ccccc2)nc1O

>  <TARGET_OR_SYSTEM>
COLO 205

>  <CAT>
inactive

$$$$
>  <MOLECULE>
Cn1c(=O)c2c(nc(Nc3ccc(Cl)cc3)n3c(=O)n(-c4ccccc4)c(=O)n23)n(C)c1=O

>  <TARGET_OR_SYSTEM>
COLO 205

>  <CAT>
inactive

$$$$

Hi, do you know how C[P+](c1ccccc1)(c1ccc(Cl)cc1)c1ccc(Cl)cc1 came out in this test?
inactive

// param item: O=C1c2ccccc2C(=O)N1c1ccc(OCCN2CCCCC2)cc1 ; yields the recorded call
inactive

Lab log entry: CCOC1c2nc3ccccc3nc2-c2ccccc2N1C(C)=O (centres undefined) — outcome as called in the assay?
inactive

Check the results log: what was the call for COc1ncc(C#CC(=O)c2ccccc2)c(OC)n1 ?
inactive

----------
system: IGROV-1; experiment: NCI tumour cell line growth inhibition, 48 h
Active and inactive are the calls of the source. Cut-off read from the data, not from the text of the source: active = GI50 up to about 1.1 µM and inactive = higher.
# GI50 annotations

>  <MOLECULE>
COC1(OC)CC2C=C(S(=O)(=O)c3ccccc3)C1N(Cc1ccccc1)C2=O (stereo not drawn)

>  <TARGET_OR_SYSTEM>
IGROV-1

>  <GI50>
37.2 µM (inactive)

$$$$
>  <MOLECULE>
CCCCc1c(C(=O)OC(C)(C)C)cc(C#Cc2cc(C(=O)OC(C)(C)C)c(CCCC)c(C(=O)OC(C)(C)C)c2)cc1C(=O)OC(C)(C)C

>  <TARGET_OR_SYSTEM>
IGROV-1

>  <GI50>
> 100 µM (inactive)

$$$$

Name the recorded GI50 for O=C1/C(=C/c2ccc(O)c(O)c2)CC/C1=C\c1ccc(O)c(O)c1 .
3.74 µM (inactive)

----------
test system: MOLT-4; assay: NCI tumour cell line growth inhibition, 48 h
Activity calls are given as the source filed them. Cut-off read from the data, not from the text of the source: active = GI50 up to about 1.1 µM and inactive = higher.
Can you answer with just one of these options? active, inactive

Study these solved cases before continuing.
>  <COMPOUND>
CCN(CC)Cc1cc(Nc2ccnc3ccc4c(nnn4C)c23)ccc1O

>  <CAT>
inactive

$$$$
>  <COMPOUND>
N/N=C1\C(=O)N(CCc2ccccc2)C(=O)C1C(=O)NCCc1ccccc1 (stereo not drawn)

>  <CAT>
inactive

$$$$
>  <COMPOUND>
COc1ccc2c3c1OC1C(=O)C=CC4(O)C(C2)NCC[C@@]314 (stereo partly drawn)

>  <CAT>
inactive

$$$$
>  <COMPOUND>
CCO[C@]12CCC[C@H]1[C@@H]1C(=O)c3ccccc3C(=O)C1=C(C)O2

>  <CAT>
inactive

$$$$
>  <COMPOUND>
CCCc1c2c([nH]c(=O)c1C)C(=O)c1[nH]c(=O)c(C)c(CCC)c1C2=O

>  <CAT>
inactive

$$$$
>  <COMPOUND>
O=[N+]([O-])C(=C1NCCN1)/C(Cl)=C(\Cl)Br

>  <CAT>
inactive

$$$$

Status in this test for CCOc1ccccc1NC(=O)/C=C1\NC(=O)CS1 ?
inactive

Record lookup: outcome of this test for c1ccc2c(Cc3c[nH]c4ccccc34)c[nH]c2c1 [ARUNDINE] ?
inactive

# lookup: test call for CC(C)(C)C1CCC2(CC1)CCN(CCCN1CCOCC1)CC2
inactive

How did this test come out for C=CCNC(=O)N(CCCC(NC(C)=O)C(=O)NCc1ccccc1)Cc1ccccc1 (stereo not drawn) ?
inactive
